# target_or_system: DGI-2 (Homo sapiens)
# Construct: encompassed the entire DGI-2 open reading frame (ORF); His-tag of vector pIVEX2.3-MCS (inferred from the vector and from the reverse primer lacking a stop codon); made in house; host or cells: cell-free in vitro translation (Rapid Translation System RTS, Roche; E. coli lysate)
# Sequence (Q15004 1-111): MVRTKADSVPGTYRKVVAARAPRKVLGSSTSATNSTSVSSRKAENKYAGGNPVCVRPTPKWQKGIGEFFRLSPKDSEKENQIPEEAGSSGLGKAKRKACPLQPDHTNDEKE
# protocol_text: ELISA analysis of phage on DGI-2 polypeptide (specific binding)
# condition_label: binding to DGI-2 polypeptide (specific binding); phage ELISA units read at 405 nm
quantity_measured: DGI-2 (OD)

[I] VGHLLSRCAHHSPGMGASPYG (DGI-2-20F-PP-B11; listed as Escherichia coli)
[II] RRILPWSFPGCGRMC (DGI-2-20R-3-A10; listed as Escherichia coli) [DGJ-2-20R-3-A10]
[III] LSRIWRGVIESAREVESRGI (DGI-2-20F-3-B1; listed as Escherichia coli)
Ask: Order by DGI-2 (OD), smallest first, the items presented above. Arrange the labels as the request states and list them.
Reply: III, I, II

###

# target_or_system: DGI-2 (Homo sapiens)
# Construct: encompassed the entire DGI-2 open reading frame (ORF); His-tag of vector pIVEX2.3-MCS (inferred from the vector and from the reverse primer lacking a stop codon); made in house; host or cells: cell-free in vitro translation (Rapid Translation System RTS, Roche; E. coli lysate)
# Sequence (Q15004 1-111): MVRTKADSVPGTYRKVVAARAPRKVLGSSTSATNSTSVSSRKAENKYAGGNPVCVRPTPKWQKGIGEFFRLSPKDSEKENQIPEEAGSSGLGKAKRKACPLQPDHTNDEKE
# protocol_text: ELISA analysis of phage on DGI-2 polypeptide (specific binding)
# condition_label: ratio of specific binding to non-specific binding
quantity_measured: DGI-2/LDH (OD)

{"query_sequence": "PAMGHCMQVLGPVLEGRSRDQVGR (DGI-2-20R-4-G6; listed as Escherichia coli)", "DGI-2/LDH (OD)": 1.4}
{"query_sequence": "HSGNRQSGSRRTHLLNIFCSSDTFVFPGWSAYLSRVCPGD (DGI-2-40F-3-B122; listed as Escherichia coli)", "DGI-2/LDH (OD)": 2.2}

[a] GIMQVAWGWREMTRLWDLGMA (GIMQVAWGWREWRLWDLGMA; DGI-2-20R-3-C6; listed as Escherichia coli)
[b] LSHPMSPLRAASQMALTQGV (DGI-2-20R-4-H7; listed as Escherichia coli)
Ask: DGI-2/LDH (OD) comparison. Which is larger, a or b ? The response must carry the label of the picked entry.
Reply: a
(a: 5.2, b: 2.6)

[a] LWLPCGLLVRPAQFYFYFSPLRHFLSSSVGSLSFPLSLLV (DGI-2-40F-3-B4; listed as Escherichia coli)
[b] YAMSSRECGIRNSGLILSMW (DGI-2-20F-PP-C9; listed as Escherichia coli)
[c] RRFVRCSVPVALRSAVPVSV (DGI-2-20F-PP-A10; listed as Escherichia coli)
[d] LSLEGGWMWDTKGGDGGSAQ (DGI-2-20R-4-F93; listed as Escherichia coli)
Ask: # sort list by recorded DGI-2/LDH (OD), greatest to least Arrange the labels as the request states and list them.
Reply: d, b, c, a
(d: 8.4, b: 3.9, c: 2.4, a: 1.1)

[a] CYLSRLFRSGQGIGQFGHVE (DGI-2-20F-PP-A82; listed as Escherichia coli)
[b] RKGWGVFCIPGLRFCDWSDP (DGI-2-20R-3-B4; listed as Escherichia coli)
Ask: For a and b , which recorded DGI-2/LDH (OD) is lower? The response must carry the label of the picked entry.
Reply: a

[a] WFTHVVEKIF [DGI-2-40F-3-A4]
[b] DRSRAPLCADKSGRWQRYRR (DGI-2-20F-PP-C10; listed as Escherichia coli)
Ask: DGI-2/LDH (OD) comparison. Which is larger, a or b ? The response must carry the label of the picked entry.
Reply: b
